# Tested on: HCT-116
# ASSAY: Antiproliferative activity against human HCT-116 cells assessed as inhibition of cell growth incubated for 48 hrs by MTT assay
# Assay type: functional, cell-based
# EXPERIMENTAL CONDITIONS: HCT-116, 48 h
Task for the reader: assign each of the following compounds its reported pIC50.
Numbers only, as −log10 of the molar value.

In [3]: df
Out[3]:
                               smiles_entry  metric  endpoint_value
0    COc1ccc2c(c1)CCN2C(=O)c1cc2ccccc2oc1=O   pIC50            5.03
1  COc1cc2c(c(OC)c1OC)-c1ccc(OC)c(=O)cc1[C@@H](NC(C)=O)CC2   pIC50            7.26
2      O=c1cc(N2CCCc3cc(Br)ccc32)c2ccccc2o1   pIC50            5.83
3       Cc1ccc2c(c1)CCCN2c1cc(=O)oc2ccccc12   pIC50            6.35
4           O=c1cc(N2CCc3ccccc32)c2ccccc2o1   pIC50            5.53

Below are 3 compounds. Give each one its pIC50.
1. O=C(c1cc2ccccc2oc1=O)N1CCc2cc(Br)ccc21
2. COc1ccc2c(c1)CCN2c1cc(=O)oc2ccccc12
3. O=c1cc(N2CCCc3ccccc32)c2ccccc2o1

## Result
1. 4.85
2. 6.80
3. 6.14

Dear colleague, could you send me pIC50 for each of the items below? Thanks.
1. O=C(c1cc2ccccc2oc1=O)N1CCCc2cc(Cl)ccc21
2. COc1ccc2c(c1)NC(=O)CN2c1cc(=O)oc2ccccc12
3. COc1ccc(N2CCN(c3cc(=O)oc4ccccc34)CC2)cc1
4. COc1ccc2c(c1)CCCN2c1cc(=O)oc2ccccc12
5. O=c1cc(N2CCCc3cc(O)ccc32)c2ccccc2o1
6. COc1ccc2c(c1)CCCN2C(=O)c1cc2ccccc2oc1=O

## Result
[4.92, 7.42, 4.73, 7.09, 6.04, 5.25]

## Task # lookup: pIC50 of "Cc1ccc2c(c1)CCN2c1cc(=O)oc2ccccc12"
## Result 5.64
